Assay: Mupirocin solubility in buffers and solubilizer solutions
Type: physicochemical
Details: organic solvent or mixture; PG (propylene glycol)
ASSAY_ENDPOINT: solubility

Input: Fill in reported solubility for this entry: C/C(=C\C(=O)OCCCCCCCCC(=O)O)C[C@@H]1OC[C@H](C[C@@H]2O[C@H]2[C@@H](C)[C@H](C)O)[C@@H](O)[C@H]1O [Mupirocin]
Output: ~100 mM

----------
Assay: Mupirocin solubility in buffers and solubilizer solutions
Type: physicochemical
Conditions: aqueous buffer, thermodynamic from solid; phosphate buffer 200 mM pH 6.3, without vigorous stirring and sonication
ASSAY_ENDPOINT: solubility

Input: Respond only with solubility recorded for `C/C(=C\C(=O)OCCCCCCCCC(=O)O)C[C@@H]1OC[C@H](C[C@@H]2O[C@H]2[C@@H](C)[C@H](C)O)[C@@H](O)[C@H]1O`
Output: ≤ 15 mM

These measurements were taken from patent US10004688B2.
